Measured values drawn from ChEMBL document CHEMBL1134903 for this set.

- System: Staphylococcus aureus
- assay.name: Effective dose required to inhibit Staphylococcus aureus intraperitoneal (IP) infection model
- Format: functional
metric: ED50 (mg/kg)
Write it as a number; the unit mg/kg goes unstated.

CC[C@H]1OC(=O)[C@H](C)[C@H]2OC3(CCN(C(=O)c4ccc5ccccc5n4)CC3)O[C@](C)(C[C@@H](C)CN[C@H](C)[C@@H](O)[C@]1(C)O)[C@H](O[C@@H]1O[C@H](C)C[C@H](N(C)C)[C@H]1O)[C@H]2C = 14
CC[C@H]1OC(=O)[C@H](C)[C@H]2OC3(CCN(CCc4ccc(C#N)cc4)CC3)O[C@](C)(C[C@@H](C)CN(C)[C@H](C)[C@@H](O)[C@]1(C)O)[C@H](O[C@@H]1O[C@H](C)C[C@H](N(C)C)[C@H]1O)[C@H]2C = 22
CC[C@H]1OC(=O)[C@H](C)[C@H]2OC3(CCN(C(=O)c4ccc[nH]4)CC3)O[C@](C)(C[C@@H](C)CN[C@H](C)[C@@H](O)[C@]1(C)O)[C@H](O[C@@H]1O[C@H](C)C[C@H](N(C)C)[C@H]1O)[C@H]2C = 19

Indicate its recorded ED50; the compound in question is CC[C@H]1OC(=O)[C@H](C)[C@H]2OC3(CCN(C(=O)c4cccc(OC)c4)CC3)O[C@](C)(C[C@@H](C)CN[C@H](C)[C@@H](O)[C@]1(C)O)[C@H](O[C@@H]1O[C@H](C)C[C@H](N(C)C)[C@H]1O)[C@H]2C
20

Indicate its recorded ED50; the compound in question is CC[C@H]1OC(=O)[C@H](C)[C@H]2OC3(CCN(C(=O)c4ccccc4)CC3)O[C@](C)(C[C@@H](C)CN[C@H](C)[C@@H](O)[C@]1(C)O)[C@H](O[C@@H]1O[C@H](C)C[C@H](N(C)C)[C@H]1O)[C@H]2C
20
